- Tested on: NCI-H522
- experiment-summary: NCI tumour cell line growth inhibition, 48 h
Calls of active or inactive are those of the source. Rule as the data show it: active = GI50 up to about 1.1 µM and inactive = higher.
Outcome codes: active, inactive

{"columns": ["molecule", "class-name"],
 "data": [
  ["O=c1c([Se]c2coc3ccccc3c2=O)coc2ccccc12", "inactive"],
  ["COc1ccc(NC(=O)C(=O)NO)c(OC)c1", "inactive"],
  ["Cc1ccc(NC(=O)c2cc3cc(/N=N/c4ccc(Br)cc4)ccc3oc2=O)cc1", "inactive"],
  ["C[C@@]12CCC(=O)C=C1CC[C@H]1C2=CC[C@]2(C)C1CC[C@@]2(C)O (stereo not given in full)", "inactive"],
  ["O=C1c2n[nH]nc2C(=O)c2n[nH]nc21", "inactive"],
  ["COc1ccc2cc3c4cc(OC)c(OC)cc4ccn3c2c1", "inactive"],
  ["CCOC(=O)/C=C(/C(=O)OCC)n1ccc(=O)n(CC(=O)OCC)c1=O", "active"],
  ["Cc1c2cc[n+](C)cc2c(C)c2c1[nH]c1ccc(Cl)cc12", "active"],
  ["Cc1ccc([N+](=O)[O-])cc1S(=O)(=O)Nc1ccc(C2=NN(c3ccc([N+](=O)[O-])cc3[N+](=O)[O-])C(c3ccccc3)C2)cc1 (stereo not given)", "inactive"],
  ["Cc1cc(C)c(C(=O)/C=C/c2ccccc2)c(C)c1", "inactive"]
]}

====

// GI50 lookup, one value per entry
- System: EKVX
- experiment-summary: NCI tumour cell line growth inhibition, 48 h
Activity calls are given as the source filed them. Cut-off read from the data, not from the text of the source: active = GI50 up to about 1.1 µM and inactive = higher. *1 amine or outer side, *2 acyl side, *3 side chain or, on linkers, in order; H or OH if unused. Where a SMILES comes first, the peptide text is derived from it. Bridges are numbered along the chain shown (N, C = ends). Roman numbers before positions name the chains, in order. [ ]: non-standard residue; d: D form. Actinocin(1to9) = Cc1c2oc3c(C)ccc(C(=O)[*:2])c3nc-2c(C(=O)[*:1])c(N)c1=O; NMeV = CN[CH](C(=O)O)C(C)C; Sar = CNCC(=O)O

{"columns": ["compound", "GI50"],
 "data": [
  ["O=C1O/C(=C(/Cl)c2cccc3ccccc23)c2ccccc21", "> 100 µM (inactive)"],
  ["CCN(CC)CCO/N=C1\\CC[C@H]2[C@@H]3CC=C4C[C@@H](O)CC[C@]4(C)[C@H]3CC[C@]12C", "35 µM (inactive)"],
  ["COc1cc([C@@H]2c3cc4c(cc3[C@@H](NCc3ccccc3)C3COC(=O)[C@@H]32)OCO4)cc(OC)c1O (some centres not stated)", "13.1 µM (inactive)"],
  ["O=C1CCCc2ccc3c(c21)CC1(Cc2ccccc2C1)C3", "7.78 µM (inactive)"],
  ["O=C(O)C(Br)C(Br)C(=O)O (configuration not stated)", "> 100 µM (inactive)"],
  ["O=c1[nH]cc(/C=N\\Nc2ccccc2)c(=O)[nH]1", "> 100 µM (inactive)"],
  ["Cc1ccc(/C=C/C(=O)c2sc(-n3nc(-c4ccccc4)cc3-c3ccccc3)nc2C)cc1", "34.8 µM (inactive)"],
  ["CC1=C2C3OC(=O)C(C)C3C(O)C[C@@]2(C)C(=O)CC1 (some centres not stated)", "> 100 µM (inactive)"],
  ["CC1/C(=N\\O)CC(c2ccccc2)N(C)C1c1ccccc1 (configuration not stated)", "> 100 µM (inactive)"],
  ["Nc1nc2cc(Cl)ccc2n1N", "> 100 µM (inactive)"],
  ["CC(=O)c1cccc(NC(=O)C(=O)C(C(=O)c2ccccc2F)C2OC(=O)c3ccccc32)c1 (configuration not stated)", "43.4 µM (inactive)"],
  ["COc1ccc(CC2NC(=O)C(NC(=O)c3c4nc5c(C(=O)NC6C(=O)NC(Cc7ccc(OC)cc7)C(=O)N7CCCC7C(=O)N(C)CC(=O)N(C)C(C(C)C)C(=O)OC6C)ccc(C)c5oc-4c(C)c(=O)c3N)C(C)OC(=O)C(C(C)C)N(C)C(=O)CN(C)C(=O)C3CCCN3C2=O)cc1 (configuration not stated) (I: TY(Me)P[Sar][NMeV] / II: TY(Me)P[Sar][NMeV]; ester I:1-I:C, II:1-II:C; linker I:N-II:N via Actinocin(1to9); configuration not given here)", "0.164 µM (active)"],
  ["CN(CCCNC(=O)c1n[nH]c2c1ccc1ccccc12)CCCNC(=O)c1n[nH]c2c1ccc1ccccc12", "21.4 µM (inactive)"],
  ["CC(=O)N1C/C(=C\\c2ccccc2)C(=O)/C(=C/c2ccccc2)C1", "24 µM (inactive)"],
  ["O=C(O)C(Cc1ccccc1)Cc1ccccc1", "> 100 µM (inactive)"],
  ["Cc1cc(O)nc(NN2C(Cl)C(=O)C2c2cccc([N+](=O)[O-])c2)n1 (configuration not stated)", "63.4 µM (inactive)"],
  ["C#CCOC(=O)C(=[N+]=[N-])C(=O)CC(C)C", "> 10 µM (inactive)"]
]}
